Origin of measurements: patent US20240067632A1

- tgt: WEE1 (Homo sapiens, UniProt P30291+Q96SW2)
- Construct: C-terminal ePL-tagged (DiscoverX, Fremont, CA) full-length WEE1 expression construct; expressed in transfected cells; host or cells: LentiX-HEK293T (Invitrogen), lentiviral transduction; co-expressing GSPT1-GN (G576N, lacking the first 158 amino acids)
- experiment-summary: WEE1-ePL degradation assay (LentiX-WEE1-ePL-GSPT1-ND cells, InCELL Hunter luminescence, 4 h)
- Type: cell-based
- particulars: 293T-LentiX WEE1-ePL cells, read-out: 293T-LentiX WEE1-ePL Degradation 4 hr (EC50)
Measured DC50 accompanies every entry in the list below.

molecule: O=C1CCC(N2Cc3cc(O[C@H]4CCN(Cc5ccc6nc(N7CC[C@@]78CCOC8)ncc6c5)C4)ccc3C2=O)C(=O)N1 (stereo partly shown)
DC50 / µM: 0.0146
//
molecule: Cc1ccc2cc(CN3CC[C@H](Oc4ccc5c(c4)CN(C4CCC(=O)NC4=O)C5=O)C3)ncc2c1 (stereo partly shown)
DC50 / µM: 0.0122
//
molecule: CO[C@H]1C[C@@H](c2ccc3cc(CN4CC[C@H](Oc5ccc6c(c5)CN(C5CCC(=O)NC5=O)C6=O)C4)ccc3n2)C1 (stereo partly shown) [drawing 577]
DC50 / µM: 0.00209
//
molecule: O=C1CC[C@H](N2Cc3cc(O[C@H]4CCN(Cc5cc(N6CCC6)c6nc(C7CCOCC7)ccc6c5)C4)ccc3C2=O)C(=O)N1
DC50 / µM: 0.026
//
molecule: O=C1CCC(N2Cc3cc(O[C@H]4CCN(Cc5cc(-c6ccccc6)ccn5)C4)ccc3C2=O)C(=O)N1 (stereo partly shown)
DC50 / µM: 0.0053
//
molecule: CC(c1cnc2ccccc2c1)N1CC[C@@H](Oc2ccc3c(c2)CN(C2CCC(=O)NC2=O)C3=O)C1 (stereo in doubt)
DC50 / µM: 0.0834
//
molecule: N#Cc1ccc2cc(CN3CC[C@H](Oc4ccc5c(c4)CN(C4CCC(=O)NC4=O)C5=O)C3)ccc2n1 (stereo partly shown)
DC50 / µM: 0.00305

* * *

- tgt: WEE1 (Homo sapiens, UniProt P30291+Q96SW2)
- Construct: C-terminal ePL-tagged (DiscoverX, Fremont, CA) full-length WEE1 expression construct; expressed in transfected cells; host or cells: LentiX-HEK293T (Invitrogen), lentiviral transduction; co-expressing GSPT1-GN (G576N, lacking the first 158 amino acids)
- experiment-summary: WEE1-ePL degradation assay (LentiX-WEE1-ePL-GSPT1-ND cells, InCELL Hunter luminescence, 4 h)
- Type: cell-based
- particulars: 293T-LentiX WEE1-ePL cells, read-out: 293T-LentiX WEE1-ePL Degradation 4 hr (EC50)
measured-quantity: DC50 (nM)

molecule: O=C1CCC(N2Cc3cc(O[C@H]4CCN(Cc5cccc6ncccc56)C4)ccc3C2=O)C(=O)N1 (some centres unmarked)
measured-quantity: DC50
observed-value: 14.6
--
molecule: CC1(c2ccc3cc(CN4CC[C@H](Oc5ccc6c(c5)CN(C5CCC(=O)NC5=O)C6=O)C4)ccc3n2)CCOCC1 (some centres unmarked)
measured-quantity: DC50
observed-value: 1.99
--
molecule: [2H]c1nc2ccc(CN3CCC(Oc4ccc5c(c4)CN(C4CCC(=O)NC4=O)C5=O)C3)cc2cc1F (centres unmarked)
measured-quantity: DC50
observed-value: 3.57
--
molecule: Cc1ccc2cc(CN3CC[C@H](Oc4ccc5c(c4)CN(C4CCC(=O)NC4=O)C5=O)C3)cc(F)c2n1 (some centres unmarked)
measured-quantity: DC50
observed-value: 1.04
--
molecule: O=C1CC[C@@H](N2Cc3cc(O[C@H]4CCN(Cc5ccc6nc(N7CCOCC7)ncc6c5)C4)ccc3C2=O)C(=O)N1
measured-quantity: DC50
observed-value: 46.3
--
molecule: N#Cc1nc2ccc(CN3CC[C@H](Oc4ccc5c(c4)CN(C4CCC(=O)NC4=O)C5=O)C3)cc2cc1F (some centres unmarked)
measured-quantity: DC50
observed-value: 7.79
--
molecule: COC[C@H]1CCC[C@@H](c2ccc3cc(CN4CC[C@H](Oc5ccc6c(c5)CN(C5CCC(=O)NC5=O)C6=O)C4)ccc3n2)C1 (some centres unmarked)
measured-quantity: DC50
observed-value: 1.82
--
molecule: O=C1CCC(N2Cc3cc(O[C@H]4CCN(Cc5ccc6nnccc6c5)C4)ccc3C2=O)C(=O)N1 (some centres unmarked)
measured-quantity: DC50
observed-value: 12.5

* * *

- tgt: WEE1 (Homo sapiens, UniProt P30291+Q96SW2)
- Construct: C-terminal ePL-tagged (DiscoverX, Fremont, CA) full-length WEE1 expression construct; expressed in transfected cells; host or cells: LentiX-HEK293T (Invitrogen), lentiviral transduction; co-expressing GSPT1-GN (G576N, lacking the first 158 amino acids)
- experiment-summary: WEE1-ePL degradation assay (LentiX-WEE1-ePL-GSPT1-ND cells, InCELL Hunter luminescence, 4 h)
- Format: cell-based
- particulars: 293T-LentiX WEE1-ePL cells, lower limit of the fit (0 = luciferase inhibitor, Ymax = DMSO control)
measured-quantity: 293T-LentiX WEE1-ePL Degradation 4 hr (Ymin)

compound: Cc1cnc2ccc(CN3CC[C@H](Oc4ccc5c(c4)CN(C4CCC(=O)NC4=O)C5=O)C3)c(C)c2c1 (some centres unmarked)
observed-value: 39.05
//
compound: CCc1ccc2cc(CN3CC[C@H](Oc4ccc5c(c4)CN(C4CCC(=O)NC4=O)C5=O)C3)ccc2n1 (some centres unmarked)
observed-value: 27
//
compound: CO[C@H]1CC[C@H](c2ccc3cc(CN4CC[C@H](Oc5ccc6c(c5)CN(C5CCC(=O)NC5=O)C6=O)C4)ccc3n2)CC1 (some centres unmarked)
observed-value: 26
//
compound: CO[C@H]1CC[C@@H](c2ccc3cc(CN4CC[C@H](Oc5ccc6c(c5)CN(C5CCC(=O)NC5=O)C6=O)C4)ccc3n2)CC1 (some centres unmarked)
observed-value: 30
//
compound: O=C1CCC(N2C(=O)c3ccc(O[C@@H]4CCN(Cc5ccnc6ccccc56)C4)cc3C2=O)C(=O)N1 (some centres unmarked)
observed-value: 90.1
//
compound: NCc1ccccc1COc1cccc(CN2CC[C@H](Oc3ccc4c(c3)CN(C3CCC(=O)NC3=O)C4=O)C2)c1 (some centres unmarked)
observed-value: 74.31
//
compound: O=C1CCC(N2C(=O)c3ccc(O[C@H]4CCN(Cc5cccc6ncccc56)C4)cc3C2=O)C(=O)N1 (some centres unmarked)
observed-value: 30.52
//
compound: O=C1CCC(N2Cc3cc(O[C@H]4CCN(Cc5ccc6nc(COC7COC7)ccc6c5)C4)ccc3C2=O)C(=O)N1 (some centres unmarked)
observed-value: 23.84
//
compound: O=C1CCC(N2Cc3cc(O[C@H]4CCN(Cc5cccc(OC(F)F)c5)C4)ccc3C2=O)C(=O)N1 (some centres unmarked)
observed-value: 75.96
//
compound: Cc1cccc2cc(CN3CC[C@H](Oc4ccc5c(c4)CN(C4CCC(=O)NC4=O)C5=O)C3)ncc12 (some centres unmarked)
observed-value: 32.22
//
compound: O=C1CCC(N2Cc3cc(O[C@H]4CCN(Cc5cnc6cccnc6c5)C4)ccc3C2=O)C(=O)N1 (some centres unmarked)
observed-value: 66
//
compound: O=C1CCC(N2Cc3cc(O[C@H]4CCN(Cc5ccc6nc(CC(F)(F)F)ccc6c5)C4)ccc3C2=O)C(=O)N1 (some centres unmarked)
observed-value: 33.67
//
compound: Cc1nccc(CN2CC[C@H](Oc3ccc4c(c3)CN(C3CCC(=O)NC3=O)C4=O)C2)c1C (some centres unmarked)
observed-value: 43.42
//
compound: CC1(c2ccc3cc(CN4CC[C@H](Oc5ccc6c(c5)CN(C5CCC(=O)NC5=O)C6=O)C4)ccc3n2)CCOCC1 (some centres unmarked)
observed-value: 32
//
compound: CC1(C)CC(=O)N(c2ccc3cc(CN4CC[C@H](Oc5ccc6c(c5)CN(C5CCC(=O)NC5=O)C6=O)C4)ccc3n2)C1 (some centres unmarked)
observed-value: 31
//
compound: O=C1CCC(N2Cc3cc(O[C@H]4CCN(Cc5cncc(-c6ccccc6)c5)C4)ccc3C2=O)C(=O)N1 (some centres unmarked)
observed-value: 33
//
compound: Cc1cc(F)c2cc(CN3CC[C@H](Oc4ccc5c(c4)CN(C4CCC(=O)NC4=O)C5=O)C3)ccc2n1 (some centres unmarked)
observed-value: 69.445
//
compound: CO[C@H]1CC[C@H](c2ccc3cc(CN4CC[C@H](Oc5ccc6c(c5)CN(C5CCC(=O)NC5=O)C6=O)C4)ccc3n2)C1 (some centres unmarked)
observed-value: 32.5
//
compound: O=C1CCC(N2Cc3cc(O[C@H]4CCN(Cc5ccc6nc([C@H]7CC[C@H](O)CC7)ccc6c5)C4)ccc3C2=O)C(=O)N1 (some centres unmarked)
observed-value: 30
//
compound: NCc1ccccc1COc1ccccc1CN1CC[C@H](Oc2ccc3c(c2)CN(C2CCC(=O)NC2=O)C3=O)C1 (some centres unmarked)
observed-value: 89.91
//
compound: CN1CCc2cc(CN3CC[C@H](Oc4ccc5c(c4)CN(C4CCC(=O)NC4=O)C5=O)C3)cnc2C1 (some centres unmarked)
observed-value: 34
//
compound: CC1(C)CN(c2ncc3cc(CN4CC[C@H](Oc5ccc6c(c5)CN(C5CCC(=O)NC5=O)C6=O)C4)ccc3n2)CCO1 (some centres unmarked)
observed-value: 31
//
compound: O=C1CCC(N2Cc3ccc(O[C@H]4CCN(Cc5cc6ccccc6cn5)C4)cc3C2=O)C(=O)N1 (some centres unmarked)
observed-value: 93.8
//
compound: O=C1CCC(N2Cc3cc(O[C@H]4CCN(Cc5ccc6nc(N7CC8(COC8)C7)ncc6c5)C4)ccc3C2=O)C(=O)N1 (some centres unmarked)
observed-value: 37
//
compound: CC(C)(C)c1ccc2cc(CN3CC[C@H](Oc4ccc5c(c4)CN(C4CCC(=O)NC4=O)C5=O)C3)ccc2n1 (some centres unmarked)
observed-value: 29
//
compound: O=C1CCC(N2C(=O)c3ccc(O[C@H]4CCN(Cc5ccc6ncccc6c5)C4)cc3C2=O)C(=O)N1 (some centres unmarked)
observed-value: 29.65
//
compound: O=C1CCC(N2Cc3cc(O[C@H]4CCN(Cc5ccnc6ccccc56)C4)ccc3C2=O)C(=O)N1 (some centres unmarked)
observed-value: 33.025
//
compound: O=C1CCC(N2Cc3cc(O[C@H]4CCN(Cc5cc6ccccc6[nH]c5=O)C4)ccc3C2=O)C(=O)N1 (some centres unmarked)
observed-value: 37.28
//
compound: Cc1ccc2cc(CN3C[C@@H](Oc4ccc5c(c4)CN(C4CCC(=O)NC4=O)C5=O)C[C@@H]3C)ccc2n1 (some centres unmarked)
observed-value: 64.5
//
compound: O=C1CCC(N2Cc3cc(O[C@H]4CCN(Cc5cc6c(cn5)OCC6)C4)ccc3C2=O)C(=O)N1 (some centres unmarked)
observed-value: 34
//
compound: Cc1cccc2cnc(CN3CC[C@H](Oc4ccc5c(c4)CN(C4CCC(=O)NC4=O)C5=O)C3)cc12 (some centres unmarked)
observed-value: 31.91
//
compound: O=C1CCC(N2Cc3cc(O[C@H]4CCN(Cc5ccc6nc(C7(O)CCOCC7)ccc6c5)C4)ccc3C2=O)C(=O)N1 (some centres unmarked)
observed-value: 31.5
